Hello, the source for this data is patent US20210198329A1, in case you need it.

measured on: T1, low-density lipoprotein receptor-related protein 6 (LRP6) (UniProt O75581 20-1370, limits assumed)
T1 construct: also called LRP6 receptor
T1 sequence (looked up): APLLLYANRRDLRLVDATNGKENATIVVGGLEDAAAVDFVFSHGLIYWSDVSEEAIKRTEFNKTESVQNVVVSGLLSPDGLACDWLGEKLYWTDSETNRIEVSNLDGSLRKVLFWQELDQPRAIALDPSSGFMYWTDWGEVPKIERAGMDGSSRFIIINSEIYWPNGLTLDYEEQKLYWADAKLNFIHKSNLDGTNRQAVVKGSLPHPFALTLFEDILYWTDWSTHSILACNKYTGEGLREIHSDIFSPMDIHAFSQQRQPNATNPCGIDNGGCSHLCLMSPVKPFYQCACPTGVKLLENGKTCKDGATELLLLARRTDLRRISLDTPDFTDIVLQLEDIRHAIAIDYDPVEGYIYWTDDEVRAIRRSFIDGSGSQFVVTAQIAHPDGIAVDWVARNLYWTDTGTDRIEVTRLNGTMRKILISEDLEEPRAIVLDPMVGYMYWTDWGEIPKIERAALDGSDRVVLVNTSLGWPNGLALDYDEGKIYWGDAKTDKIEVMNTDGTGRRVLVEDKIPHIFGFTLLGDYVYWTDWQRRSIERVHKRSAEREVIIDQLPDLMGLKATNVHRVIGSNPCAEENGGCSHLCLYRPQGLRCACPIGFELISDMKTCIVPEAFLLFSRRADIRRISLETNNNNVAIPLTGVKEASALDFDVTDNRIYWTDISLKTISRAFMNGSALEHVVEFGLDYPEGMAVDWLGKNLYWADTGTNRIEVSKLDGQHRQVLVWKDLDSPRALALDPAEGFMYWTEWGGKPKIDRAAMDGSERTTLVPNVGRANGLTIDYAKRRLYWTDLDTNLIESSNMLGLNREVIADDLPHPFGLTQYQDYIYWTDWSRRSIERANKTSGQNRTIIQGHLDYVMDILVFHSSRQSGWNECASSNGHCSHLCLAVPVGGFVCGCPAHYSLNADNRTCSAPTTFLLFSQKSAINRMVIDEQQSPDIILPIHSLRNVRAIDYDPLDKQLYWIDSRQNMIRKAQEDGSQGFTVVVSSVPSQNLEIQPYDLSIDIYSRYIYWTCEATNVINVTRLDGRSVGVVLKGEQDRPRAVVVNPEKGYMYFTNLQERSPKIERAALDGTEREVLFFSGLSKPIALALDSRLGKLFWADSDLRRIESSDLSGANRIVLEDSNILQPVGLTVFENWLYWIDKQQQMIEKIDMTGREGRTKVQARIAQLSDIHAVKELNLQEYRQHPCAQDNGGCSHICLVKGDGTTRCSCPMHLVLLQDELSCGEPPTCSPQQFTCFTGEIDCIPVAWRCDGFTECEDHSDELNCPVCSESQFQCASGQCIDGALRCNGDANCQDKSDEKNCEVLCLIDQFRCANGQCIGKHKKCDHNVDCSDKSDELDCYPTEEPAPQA
protocol summary: LSPR spectroscopy; peptide on nanoparticles as ligand, LRP6 as analyte at 10^-9 to 10^-6 M; sigmoid fit of plasmon shift
Bridges are numbered along the chain shown (N, C = ends). Where no end group is shown, it is not given here.
measured metric: Kd

Q: Returns the measured Kd for the input binder. Input: QVCTKHRRKGSHGLEIFQRCY (Held on nanoparticles as the ligand in the LSPR assay) [pep-2 (SEQ ID NO: 2)]
Ans: ~470 nM

Q: Returns the measured Kd for the input binder. Input: CCARHFWSKIC (disulfide 1-11, Made by synthesis; Held on nanoparticles as the ligand in the LSPR assay) [pep-4 (SEQ ID NO: 4)]
Ans: ~550 nM
